System: RXF 393
Test: NCI tumour cell line growth inhibition, 48 h
Calls of active or inactive are those of the source. Cut-off read from the data, not from the text of the source: active = GI50 up to about 1.1 µM and inactive = higher.
Your reply should match one of these outcome classes. active, inactive

Example cases with answers are listed next.
> print(dat)
                                 smiles.str  category
1                           CC(=O)N(CCN)CCN  inactive
2  O=C(c1ccc(Cl)cc1)c1ccc(OCCCOc2ccc(C(=O)c3ccc(Cl)cc3)cc2Cl)c(Cl)c1  inactive
3  C=C1CCN2CC[C@@H](OC(=O)/C(C)=C\C)[C@@H]12  inactive
4         COc1ccc(Cc2cc(OC)c(OC)c(OC)c2)cc1    active
5  C/C(CN1C(=O)c2ccccc2C1=O)=N\NS(=O)(=O)c1ccc(Br)cc1  inactive

Please share the test call associated with Cc1cc2oc(=O)[nH]c(=S)c2c(C)c1C .
inactive

----------
Test system: HOP-62
Assay: NCI tumour cell line growth inhibition, 48 h
The source made the active and inactive calls. Cut-off read from the data, not from the text of the source: active = GI50 up to about 1.1 µM and inactive = higher.
READOUT LABEL: GI50

Consider the compound shown here: COc1ccc2c(c1)/C(=C\c1c(-c3ccccc3)nc3n1CCS3)C(=O)N2 What is its recorded GI50?
10.5 µM (inactive)

Item: C=C(C)C(=O)OC1CC2(C)OC(=CC2=O)C(C)CC2OC(=O)C(=C)C12 (stereo unspecified)
19.2 µM (inactive)

Can you handle CN(CCc1ccccn1)/[N+]([O-])=N/O.CNCCc1ccccn1 next?
> 100 µM (inactive)

Another compound to look at: CCOc1cc(/C=C/C=C/c2ccc(N(C)C)cc2)[s+]c2ccccc12
7.71 µM (inactive)

----------
System: HCC 2998
Assay: NCI tumour cell line growth inhibition, 48 h
Calls of active or inactive are those of the source. No stated cut-off is given here; in the data, active = GI50 up to about 1.1 µM and inactive = higher. *1 amine or outer side, *2 acyl side, *3 side chain or, on linkers, in order; H or OH if unused. Where a SMILES comes first, the peptide text is derived from it. The star is where a group is joined. γGlu = O=C(O)[CH](CCC(=O)[*:2])N[*:1]; NHOH = ON*
Respond only with the outcome that fits, drawn from true for active, false for inactive

Check out these entries, answers already filled in.
COMPOUND	TESTED TARGET	CATEGORY
O=C(O)C(CO)NC(=O)C1C(C(=O)O)C(c2ccccc2[N+](=O)[O-])C=C(c2ccco2)N1c1ccncc1 (configuration not stated)	HCC 2998	false
CO/S(=N/S(=O)(=O)c1ccccc1)c1ccccc1[N+](=O)[O-] (configuration not stated)	HCC 2998	false
Cn1c(=O)c2c(nc3n2CCCC(=O)N3CC(O)CCl)n(C)c1=O (configuration not stated)	HCC 2998	false
S=P(N1CCCC1)(N1CC1)N1CC1	HCC 2998	false
OC(CN(CCCl)CCCl)C(O)C(O)C(O)CN(CCCl)CCCl (configuration not stated)	HCC 2998	false
NC(CCC(=O)NC(CCC(=O)NO)C(=O)NCC(=O)O)C(=O)O (configuration not stated) (γGlu-Glu(NHOH)-Gly-OH; configuration not given here)	HCC 2998	false
NC(CCCCNc1ccn(C2OC(CO)C(O)C2O)c(=O)n1)C(=O)O (configuration not stated)	HCC 2998	false
Cc1ccnc2[nH]c(-c3ccccc3)cc(=O)c12	HCC 2998	true

I would be grateful if you could indicate the recorded call for COc1cc(C2c3cc4c(cc3OC(N3CCCCC3)C2C)OCO4)cc(OC)c1O (configuration not stated) .
false

Query N#CCC(=O)N/N=C1/C(=O)N(c2cc(Cl)ccc2Cl)C(=O)C(=O)C1c1nc2ccccc2s1 (configuration not stated) next
false

----------
Tested on: A498
Test: NCI tumour cell line growth inhibition, 48 h
The source made the active and inactive calls. Rule as the data show it: active = GI50 up to about 1.1 µM and inactive = higher.
Response enum: active, inactive

// below: answered compounds
COMPOUND	CATEGORY
Nc1n[nH]c2nc3ccc(C(F)(F)F)cc3nc12	inactive
C=C1CN=C(Nc2ccc(Cl)cc2)S1	inactive
COCC(=O)[C@]1(O)Cc2c(O)c3c(c(O)c2[C@@H](OC2CC(N)C(O)C(C)O2)C1)C(=O)c1c(OC)cccc1C3=O (stereo not given in full)	active
O=C1[C@H]2ON(c3ccccc3)C(c3ccc(Cl)cc3Cl)[C@H]2C(=O)N1c1ccc(Cc2ccc(N3C(=O)[C@@H]4ON(c5ccccc5)C(c5ccc(Cl)cc5Cl)[C@@H]4C3=O)cc2)cc1 (stereo not given in full)	inactive
CC(C)(C)C1CCC(=O)/C(=C/CC2CC(=O)N(c3ccccc3)C(=O)C2)C1 (stereo not given)	inactive

Turning now to a further record.
# outcome recorded in this test, key = C=C1CCN2CC[C@@H](OC(=O)/C(C)=C\C)[C@@H]12
inactive

----------
Tested on: SF-295
Assay: NCI tumour cell line growth inhibition, 48 h
Calls of active or inactive are those of the source. Rule as the data show it: active = GI50 up to about 1.1 µM and inactive = higher.
# GI50 per entry

The following molecules have reported results that may help.
> print(dat)
                                   molecule  tested.target            obs.value
1  C/C(=N\N=C(N)N)c1sc(-c2nc(C)c(/C(C)=N/N=C(N)N)s2)nc1C         SF-295  > 100 µM (inactive)
2  COc1ccc(NC(=S)NN=C(C)c2cccc(C(C)=NNC(=S)Nc3ccc(OC)cc3)n2)cc1         SF-295   11.2 µM (inactive)
3  CCCCCCCCCCCCCCCCOCC(CN(C)CCN(C)C)OCCCCCCCCCCCCCCCC (stereo unspecified)         SF-295  > 100 µM (inactive)

Now for another entry.
// GI50 lookup, key: c1ccc(C(c2cccc3c2ccc2ccccc23)C(c2ccccc2)c2cccc3c2ccc2ccccc23)cc1 (stereo unspecified)
> 100 µM (inactive)

----------
Test system: IGROV-1
Test: NCI tumour cell line growth inhibition, 48 h
Calls of active or inactive are those of the source. Cut-off read from the data, not from the text of the source: active = GI50 up to about 1.1 µM and inactive = higher.
READOUT LABEL: GI50

> print(dat)
                                   compound           obs.value
1  [O-][n+]1c(CN2CCCCC2)nc2cccc3c2c1-c1ccccc1-3  23.5 µM (inactive)

Request the reported GI50 associated with Nc1nc(NCC2(CO)CC(CCc3ccccc3)C2)cc(=O)[nH]1 (centres undefined)
> 100 µM (inactive)

Do the same for S=P(N1CCCC1)(N1CC1)N1CC1 please
> 100 µM (inactive)

What about O=C1c2ccccc2C(=O)c2c(NCC(O)CO)ccc(NCC(O)CO)c21 (centres undefined) ?
49.4 µM (inactive)

Similarly, Clc1ccc(-n2nnc(C3=NCCN3)c2-c2ccccc2)cc1 ?
> 100 µM (inactive)

And what about the compound NS(=O)(=O)c1ccc(/N=N/c2c(O)c(C(=O)O)cc3ccccc23)cc1 ?
> 100 µM (inactive)

Queued: C=C1C(=O)OC2/C=C(\C)C3OC3/C=C(/C(=O)OC)C(OC(C)=O)C(OC(=O)C(C)(O)C(C)OC(C)=O)C12 (centres undefined)
1.98 µM (inactive)

// repeat for CSc1c([S+](C)[O-])c2ccccc2n1C (centres undefined) and report
> 100 µM (inactive)

What would you report for NC(CCCCNc1ccn(C2OC(CO)C(O)C2O)c(=O)n1)C(=O)O (centres undefined) ?
65.8 µM (inactive)

----------
System: A498
Test: NCI tumour cell line growth inhibition, 48 h
The source made the active and inactive calls. Cut-off read from the data, not from the text of the source: active = GI50 up to about 1.1 µM and inactive = higher.
READOUT LABEL: GI50

Look over these answered cases.
> print(dat)
                                   molecule  readout.label           obs.value
1  CN(CO)c1nc(N(C)CO)nc(N(C)CO)n1 [TRIMELAMOL]           GI50  23.7 µM (inactive)
2  CN(C)CCCNC(=O)c1cc(NC(=O)c2cc(NC(=O)CCCn3c4ccccc4c4ccccc43)cn2C)cn1C           GI50  19.3 µM (inactive)

API: value(readout= GI50, system= A498, query= CC(C)NC(=O)OCC[S+]([O-])c1c(Cl)c(Cl)nn1C (stereo not drawn) )
> 100 µM (inactive)

Entry to check: O=C1OC(c2ccc(O)c(-c3ccccc3)c2)(c2ccc(O)c(-c3ccccc3)c2)c2c(Cl)c(Cl)c(Cl)c(Cl)c21
> 100 µM (inactive)

----------
Tested on: SN12C
Assay: NCI tumour cell line growth inhibition, 48 h
Activity calls are given as the source filed them. No stated cut-off is given here; in the data, active = GI50 up to about 1.1 µM and inactive = higher.
READOUT LABEL: GI50

These recorded examples may help you get a feel for the data.
COMPOUND	GI50
COc1ccc(C(=O)CCN(C)C)c2ccccc12	21.5 µM (inactive)
O=C(O)C(CO)NC(=O)C1C(C(=O)O)C(c2ccccc2[N+](=O)[O-])C=C(c2ccco2)N1c1ccncc1 (centres undefined)	4.62 µM (inactive)
C=C(C)COc1cc(/N=C(/S)OC(C)C)ccc1Cl	16.1 µM (inactive)

# query: GI50 of entry COc1ccc(C2C(Cl)C(=O)N2NC(=O)Cc2ccccc2)cc1OC (centres undefined)
> 100 µM (inactive)

# repeat for CC(=O)OCC1OC(N2C(=O)/C(=C\c3ccc(Cl)cc3)C(N)=Nc3ccccc32)C(OC(C)=O)C(OC(C)=O)C1OC(C)=O (centres undefined)
29.2 µM (inactive)

Try this compound too: Cc1ccc(C2=C(c3ccccc3)C(Br)(c3ccccc3)C(c3ccccc3)=C2c2ccc(C)cc2)cc1
> 100 µM (inactive)

Input C=C1C(=O)OC2/C=C(\C)C3OC3/C=C(/C(=O)OC)C(OC(C)=O)C(OC(=O)C(C)(O)C(C)OC(C)=O)C12 (centres undefined)
2.67 µM (inactive)

Check O=C(/C=C/c1ccccc1)C[C@@H](O)C[C@@H]1CC=CC(=O)O1 too.
12.5 µM (inactive)

Now consider O=C1C=C(Br)C(=O)C12CCc1ccccc12 (centres undefined) and answer again.
17.3 µM (inactive)

Same thing, different compound: Cc1c(C)c(S(=O)(=O)N(CCCCN)OCCCN)c(C)c2c1OC(C)(C)CC2
29.6 µM (inactive)

Next record, please: Cc1ccc2c(O)cc(-c3cccs3)nc2n1
19.1 µM (inactive)

What about CC(C(=O)OCc1ccccc1)N(Cc1ccccc1)Cc1ccccc1 (centres undefined) ?
> 100 µM (inactive)
